# Measurement description: MTS cell viability assay, A549
# Type: cell-based
# Conditions used: human, A549 cells; 24 h, 156 µg/mL
Readout kind: viability at 24 h, 156 µg/mL

**Query** What viability at 24 h, 156 µg/mL value was documented for this molecule, COc1cc(/C=N/N=C2\SCC(=O)N2Cc2ccccc2)cc(OC)c1OC [TZD-6] ?
**Result** 78%

====

# Measurement description: MTS cell viability assay, HFF-1
# Assay type: cell-based, human
# Conditions used: human, HFF-1 cells (foreskin fibroblasts), 24 h, 312 µg/mL
# Procedure: The MTS assay was employed in the current study to evaluate the in vitro effects of thiazolidinone derivatives (TZDs-1, 5, 6, and 7) on the cellular viability of the HFF-1, HepG2, and A549 cell lines following incubation for 24 and 48 h. Using the MTS assay allows for the quantitative measurement of how TZDs affect cell viability after a certain period of treatment. […]
Readout kind: viability at 24 h, 312 µg/mL (%)
Express your answer in %, writing the number without its unit.

**Query** What viability at 24 h, 312 µg/mL value was documented for this compound, COc1cc(/C=N/N=C2\SCC(=O)N2Cc2ccccc2)cc(OC)c1OC [TZD-6] ?
**Result** 70

====

# Measurement description: MTS cell viability assay, HepG2
# Type: cell-based
# Conditions used: human, HepG2 cells, concentrations of ≥1250 µg/mL, time not stated
Readout kind: viability

| Compound | Result |
| --- | --- |
| COc1cc(/C=N/N=C2\SCC(=O)N2Cc2ccccc2)cc(OC)c1OC [TZD-6] | < 25% |

Turning to the following compound.
**Query** What viability value was documented for this compound, COc1cc(C=NNC2=NC(=O)CS2)cc(OC)c1OC [TZD-1] ?
**Result** < 25%

====

# Measurement description: MTS cell viability assay, HepG2
# Assay type: cell-based
# Conditions used: human, HepG2 cells, 24 h, 5000 µg/mL
Readout kind: viability at 24 h, 5000 µg/mL (%)
Express your answer in %, writing the number without its unit.

**Query** What viability at 24 h, 5000 µg/mL value was documented for this molecule, COc1cc(/C=N/N=C2\SCC(=O)N2Cc2ccccc2)cc(OC)c1OC ?
**Result** 35

====

The reader will find reported viability at 24 h, 1250 µg/mL values listed item by item below.
# Measurement description: MTS cell viability assay, HFF-1
# Assay type: cell-based, human
# Conditions used: human, HFF-1 cells (foreskin fibroblasts), 24 h, 1250 µg/mL
# Method: The MTS assay was employed in the current study to evaluate the in vitro effects of thiazolidinone derivatives (TZDs-1, 5, 6, and 7) on the cellular viability of the HFF-1, HepG2, and A549 cell lines following incubation for 24 and 48 h. Using the MTS assay allows for the quantitative measurement of how TZDs affect cell viability after a certain period of treatment. […]
Express your answer in %, writing the number without its unit.

# annotated cases, reported viability at 24 h, 1250 µg/mL shown
| Molecule | Unit annotation | viability at 24 h, 1250 µg/mL |
| --- | --- | --- |
| COc1cc(/C=N/N=C2\SCC(=O)N2Cc2ccccc2)cc(OC)c1OC [TZD-6] | % | 2 |
| COc1cc(C=NNC2=NC(=O)CS2)cc(OC)c1OC [TZD-1] | % | 6.45 |

Turning to the following molecule.
**Query** What viability at 24 h, 1250 µg/mL value was documented for this molecule, COc1cc(/C=N/N=C2\SCC(=O)N2Cc2ccc([N+](=O)[O-])cc2)cc(OC)c1OC [TZD-7] ?
**Result** 110

====

# Measurement description: MTS cell viability assay, HepG2
# Assay type: cell-based
# Conditions used: human, HepG2 cells, 48 h, 1250 µg/mL
Readout kind: viability at 48 h, 1250 µg/mL (%)
Express your answer in %, writing the number without its unit.

| Smiles text | viability at 48 h, 1250 µg/mL [%] |
| --- | --- |
| COc1cc(/C=N/N=C2\SCC(=O)N2Cc2ccccc2)cc(OC)c1OC | 12 |

Turning to the following molecule.
**Query** What viability at 48 h, 1250 µg/mL value was documented for this molecule, COc1cc(C=NNC2=NC(=O)CS2)cc(OC)c1OC ?
**Result** 21.9

====

The reader will find reported viability at 24 h, 1250 µg/mL values listed item by item below.
# Measurement description: MTS cell viability assay, A549
# Format: cell-based
# Conditions used: human, A549 cells; 24 h, 1250 µg/mL
Express your answer in %, writing the number without its unit.

# annotated cases, reported viability at 24 h, 1250 µg/mL shown
| Smiles text | Unit annotation | Numeric readout |
| --- | --- | --- |
| COc1cc(C=NNC2=NC(=O)CS2)cc(OC)c1OC | % | 75.6 |
| COc1cc(/C=N/N=C2\SCC(=O)N2Cc2ccc([N+](=O)[O-])cc2)cc(OC)c1OC | % | 70 |

Turning to the following compound.
**Query** What viability at 24 h, 1250 µg/mL value was documented for this compound, COc1cc(/C=N/N=C2\SCC(=O)N2Cc2ccccc2)cc(OC)c1OC ?
**Result** 13

====

# Measurement description: MTS cell viability assay, HepG2
# Format: cell-based
# Conditions used: human, HepG2 cells, 24 h, 156 µg/mL
Readout kind: viability at 24 h, 156 µg/mL (%)
Express your answer in %, writing the number without its unit.

**Query** What viability at 24 h, 156 µg/mL value was documented for this compound, COc1cc(/C=N/N=C2\SCC(=O)N2Cc2ccccc2)cc(OC)c1OC ?
**Result** 76

====

# Measurement description: MTS cell viability assay, HepG2
# Assay type: cell-based
# Conditions used: human, HepG2 cells, 24 h, 2500 µg/mL
Readout kind: viability at 24 h, 2500 µg/mL (%)
Express your answer in %, writing the number without its unit.

**Query** What viability at 24 h, 2500 µg/mL value was documented for this molecule, COc1ccc(CN2C(=O)CSC2=NN=Cc2cc(OC)c(OC)c(OC)c2)cc1 [TZD-5] ?
**Result** 63

====

# Measurement description: MTS cell viability assay, A549
# Format: cell-based
# Conditions used: human, A549 cells; 48 h, 1250 µg/mL
Readout kind: viability at 48 h, 1250 µg/mL (%)
Express your answer in %, writing the number without its unit.

| Smiles text | Readout kind | Unit annotation | Numeric readout |
| --- | --- | --- | --- |
| COc1cc(/C=N/N=C2\SCC(=O)N2Cc2ccc([N+](=O)[O-])cc2)cc(OC)c1OC | viability at 48 h, 1250 µg/mL | % | 82.3 |
| COc1cc(/C=N/N=C2\SCC(=O)N2Cc2ccccc2)cc(OC)c1OC | viability at 48 h, 1250 µg/mL | % | 9 |

Turning to the following molecule.
**Query** What viability at 48 h, 1250 µg/mL value was documented for this molecule, COc1cc(C=NNC2=NC(=O)CS2)cc(OC)c1OC ?
**Result** 70.6

====

# Measurement description: MTS cell viability assay, HFF-1
# Assay type: cell-based, human
# Conditions used: human, HFF-1 cells (foreskin fibroblasts), 48 h, 1250 µg/mL
The reader will find reported viability at 48 h, 1250 µg/mL values listed item by item below.

# annotated cases, reported viability at 48 h, 1250 µg/mL shown
| Smiles text | Readout kind | Result |
| --- | --- | --- |
| COc1cc(/C=N/N=C2\SCC(=O)N2Cc2ccc([N+](=O)[O-])cc2)cc(OC)c1OC | viability at 48 h, 1250 µg/mL | > 94% |
| COc1cc(/C=N/N=C2\SCC(=O)N2Cc2ccccc2)cc(OC)c1OC | viability at 48 h, 1250 µg/mL | 1 to 2% |

Turning to the following compound.
**Query** What viability at 48 h, 1250 µg/mL value was documented for this compound, COc1cc(C=NNC2=NC(=O)CS2)cc(OC)c1OC ?
**Result** 15.3%

====

# Measurement description: MTS cell viability assay, HFF-1
# Assay type: cell-based, human
# Conditions used: human, HFF-1 cells (foreskin fibroblasts), 48 h, 2500 µg/mL
The reader will find reported viability at 48 h, 2500 µg/mL values listed item by item below.

| Smiles text | Readout kind | Result |
| --- | --- | --- |
| COc1ccc(CN2C(=O)CSC2=NN=Cc2cc(OC)c(OC)c(OC)c2)cc1 | viability at 48 h, 2500 µg/mL | 48% |

**Query** What viability at 48 h, 2500 µg/mL value was documented for this compound, COc1cc(/C=N/N=C2\SCC(=O)N2Cc2ccccc2)cc(OC)c1OC ?
**Result** 1 to 2%
